// data source = patent US11034699B2

assay target: human mGlu4 receptor (Homo sapiens (Human), UniProt Q14833)
Sequence (Q14833 33-912): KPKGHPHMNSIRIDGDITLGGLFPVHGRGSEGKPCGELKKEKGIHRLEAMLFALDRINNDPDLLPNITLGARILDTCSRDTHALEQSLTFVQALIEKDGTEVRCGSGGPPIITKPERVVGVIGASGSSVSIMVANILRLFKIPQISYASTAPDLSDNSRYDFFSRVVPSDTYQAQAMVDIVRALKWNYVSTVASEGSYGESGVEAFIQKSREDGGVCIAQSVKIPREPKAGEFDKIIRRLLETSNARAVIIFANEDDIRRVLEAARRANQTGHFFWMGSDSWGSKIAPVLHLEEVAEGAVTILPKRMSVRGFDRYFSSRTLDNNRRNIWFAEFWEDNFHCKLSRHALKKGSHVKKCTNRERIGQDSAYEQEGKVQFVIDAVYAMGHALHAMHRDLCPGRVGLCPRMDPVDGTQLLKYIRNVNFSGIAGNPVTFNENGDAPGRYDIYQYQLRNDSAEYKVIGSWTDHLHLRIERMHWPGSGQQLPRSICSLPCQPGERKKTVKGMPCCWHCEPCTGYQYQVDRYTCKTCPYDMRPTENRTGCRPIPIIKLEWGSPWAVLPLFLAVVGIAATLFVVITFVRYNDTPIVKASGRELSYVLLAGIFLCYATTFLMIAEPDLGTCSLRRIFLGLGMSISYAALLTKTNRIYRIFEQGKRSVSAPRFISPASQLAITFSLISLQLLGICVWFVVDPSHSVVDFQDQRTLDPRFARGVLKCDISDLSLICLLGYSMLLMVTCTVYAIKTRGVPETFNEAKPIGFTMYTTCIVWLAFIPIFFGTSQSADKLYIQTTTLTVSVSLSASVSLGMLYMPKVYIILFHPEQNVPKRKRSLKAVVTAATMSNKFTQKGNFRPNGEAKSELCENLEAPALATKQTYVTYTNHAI
method description: Ca2+ mobilization in vitro assay on recombinant human mGlu4 expressed in HEK293 cells (PAM)
Assay type: cell-based
experimental conditions: HEK293 cells, human mGlu4, L-AP4 at EC20
// classify(record): look up EC50 in ranges low = under 50 nM, mid = from 50 nM up to 60 nM, high = 60 nM and over

CN1C(=O)N(c2c(F)cc(C#Cc3ccccc3)cc2F)C(=O)C[C@]12CCCc1ccncc12 :: mid
CN1C(=O)N(c2c(F)cc(C#Cc3cccnc3)cc2F)C(=O)C[C@]12CCOc1ccccc12 :: high
CN1C(=O)N(c2c(F)cc(C#Cc3cccnc3)cc2F)C(=O)C[C@]12CCCc1ccccc12 :: mid
CCN1C(=O)N(c2c(F)cc(C#Cc3ccccc3)cc2F)C(=O)C[C@]12CCCc1ccncc12 :: high
CN1C(=O)N(c2c(F)cc(C#Cc3ccccc3)cc2F)C(=O)C[C@]12CCCc1cnccc12 :: high

Query: Entry `CN1C(=O)N(c2c(F)cc(C#Cc3ccccc3)cc2F)C(=O)C[C@]12CCCCc1nn(C)cc12` belongs to which category?
Reply: low

Query: Now consider `CN1C(=O)N(c2c(F)cc(C#Cc3cccnc3)cc2F)C(=O)C[C@]12COCc1ccccc12` and answer again.
Reply: low

Query: Now consider `CN1C(=O)N(c2c(F)cc(C#Cc3ccccc3)cc2F)C(=O)C[C@]12CCCc1ncccc12` and answer again.
Reply: high

Query: Now consider `CN1C(=O)N(c2c(F)cc(C#Cc3ccccc3)cc2F)C(=O)C[C@]12CCCCc1[nH]ncc12` and answer again.
Reply: mid

Query: Now consider `CN1C(=O)N(c2c(F)cc(C#Cc3ccccc3)cc2F)C(=O)C[C@]12CCCc1nn(C)cc12` and answer again.
Reply: low

Query: Now consider `CN1C(=O)N(c2c(F)cc(C#Cc3ccccc3)cc2F)C(=O)C[C@]12CCCCc1c2cnn1C` and answer again.
Reply: low

----------
assay target: human mGlu4 receptor (Homo sapiens (Human), UniProt Q14833)
method description: Ca2+ mobilization in vitro assay on recombinant human mGlu4 expressed in HEK293 cells (PAM)
Assay type: cell-based
experimental conditions: HEK293; maximal response in % of maximal stimulatory effect of saturating L-AP4; read-out: Eff. (%)
measurement type: Emax (%)
Numbers only, in %.

Here are 2 molecules together with their reported answers.
CN1C(=O)N(c2c(F)cc(C#Cc3ccccc3)cc2F)C(=O)C[C@]12CCCCc1[nH]ncc12 [Example 15] :: 133
CN1C(=O)N(c2c(F)cc(C#Cc3ccccc3)cc2F)C(=O)C[C@]12CCCc1ncccc12 [Example 5] :: 121

For the 3 molecules below, give their Emax values.
1. CCN1C(=O)N(c2c(F)cc(C#Cc3ccccc3)cc2F)C(=O)C[C@]12CCCc1ccncc12 [Example 11]
2. CN1C(=O)N(c2c(F)cc(C#Cc3ccccc3)cc2F)C(=O)C[C@]12CCCc1ccncc12 [Example 1]
3. CN1C(=O)N(c2c(F)cc(C#Cc3ccccc3)cc2F)C(=O)C[C@]12CCc1ncccc12 [Example 4]

Reply:
1. 130
2. 101
3. 115

For the 6 molecules below, give their Emax values.
1. CN1C(=O)N(c2c(F)cc(C#Cc3cccnc3)cc2F)C(=O)C[C@]12COCc1ccccc12 [Example 10]
2. CN1C(=O)N(c2c(F)cc(C#Cc3cccnc3)cc2F)C(=O)C[C@]12CCOc1ccccc12 [Example 8]
3. CN1C(=O)N(c2c(F)cc(C#Cc3ccccc3)cc2F)C(=O)C[C@]12CCCc1c2cnn1C [Example 14]
4. CN1C(=O)N(c2c(F)cc(C#Cc3ccccc3)cc2F)C(=O)C[C@]12CCCc1nn(C)cc12 [Example 13]
5. CN1C(=O)N(c2c(F)cc(C#Cc3ccccc3)cc2F)C(=O)C[C@]12CCOc1ncccc12 [Example 9]
6. CN1C(=O)N(c2c(F)cc(C#Cc3cccnc3)cc2F)C(=O)C[C@]12CCCc1ccccc12 [Example 2]

Reply:
1: 118; 2: 145; 3: 151; 4: 165; 5: 124; 6: 101

For the 5 molecules below, give their Emax values.
1. CN1C(=O)N(c2c(F)cc(C#Cc3ccccc3)cc2F)C(=O)C[C@]12CCCc1[nH]ncc12 [Example 12]
2. CN1C(=O)N(c2c(F)cc(C#Cc3ccccc3)cc2F)C(=O)C[C@]12CCCCc1nn(C)cc12 [Example 17]
3. CN1C(=O)N(c2c(F)cc(C#Cc3ccccc3)cc2F)C(=O)C[C@]12CCCc1cnccc12 [Example 6]
4. CN1C(=O)N(c2c(F)cc(C#Cc3ccccc3)cc2F)C(=O)C[C@]12CCCCc1c2cnn1C [Example 16]
5. CN1C(=O)N(c2c(F)cc(C#Cc3cccnc3)cc2F)C(=O)C[C@]12CCc1ccccc12 [Example 3]

Reply:
[152, 131, 115, 137, 94]

Query: What Emax value was documented for this molecule, CN1C(=O)N(c2c(F)cc(C#Cc3ccccc3)cc2F)C(=O)C[C@]12CCCc1ncncc12 [Example 7] ?
Reply: 115
